testProtocol: A qHTS for Small Molecule Inhibitors of Shiga Toxin; further: 0% is about no effect
testContext: Vero cells, Shiga toxin protein synthesis inhibition reporter; at 38.7 µM, stronger effect = higher value
In all, about 290,000 compounds went through this assay and about 27,000 (9.3%) were called active. For the sample, actives were picked, then their nearest neighbours and some compounds at random.
Field: inhibition. Provide a value for each of the compounds that follow.
Give bare numbers, in %.

>>> reportedresult("O=C1OC(/C=C/c2ccccc2)=NC/1=C/c1ccco1")
-7.2

Please give inhibition for each item listed below.
1. C[C@H](NC(=O)c1nc[nH]c1C(=O)NCC(=O)OC(C)(C)C)C(=O)OCc1ccccc1
2. COC(=O)CSc1nc(C2CC2)nc2ccccc12
3. COC(=O)c1cc(S(=O)(=O)N2CCN(c3cc(C)ccc3C)CC2)c[nH]1
4. COC(=O)CSc1nc2ccccc2c(=O)n1Cc1ccccc1
5. COc1cccc(CSc2nc3nc(C)cc(C)n3n2)c1

Result ::
1: -5.08; 2: -5.63; 3: -9.79; 4: -8.77; 5: -3.55

Please give inhibition for each item listed below.
1. O=C(CCc1ccccc1)NNC(=O)COc1ccc(Cl)cc1
2. COc1ccc2[nH]c3nc(SCC(=O)NC4CC4)nnc3c2c1
3. O=C(O)c1ccc(NC(=O)c2ccc(COc3ccc(Cl)cc3)o2)cc1
4. Cc1ccc(-n2ncc3c2CC(C)(C)CC3NC(=O)CCc2cnn(C)c2)cc1 (stereo not given)

Result ::
-14.5
-7.63
-8.9
-4.16
